B1: HSP90AB1 (parent)
chain: EADKNDKAVKDLVVLLFETALLSS

- Variants of: B1
- Test summary: protein stability index of a GFP-peptide fusion (GPS, HEK-293T) (PSI 1-6); higher = more stable;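 note: lentivirally expressed fusions sorted by FACS into six bins by GFP to DsRed ratio, PSI derived from sequencing read proportions per bin multiplied by bin number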
- Settings: c terminus: a fixed tail appended
Quantity name: protein stability index
Answer field: number only, no words.

Sample answers from the record:
[
  {
    "Variant notation": "D11R",
    "protein stability index": 3.27
  },
  {
    "Variant notation": "N5S",
    "protein stability index": 2
  }
]

Okay, now this variant:
In plain terms, "A2N" has a documented protein stability index of 2.11
